Values were extracted from PubChem BioAssay (NCI).

system: T-47D breast; assay: NCI tumour cell line growth inhibition, 48 h
For each of the molecules below, state its TGI.

Kindly note the recorded TGI for O=C(Nc1c(Cl)cccc1Cl)Oc1cccc2cccnc12 , which is 14.5 µM

# molecule Cn1c(SCc2ccc([N+](=O)[O-])cc2)nnc1C12CC3CC(CC(C3)C1)C2 ; its TGI = > 10 µM

# molecule CN1C(=O)c2c(c3c4ccccc4n(C)c3c3c2c2ccccc2n3C)C1=O ; its TGI = > 100 µM

The value of TGI measured for the molecule C[C@]12CC[C@@H]3c4cc(C=O)c(OCc5ccccc5)cc4CC[C@H]3[C@@H]1CCC2OCc1ccccc1 (stereo partly specified) turned out to be > 100 µM

Entry Cc1cccc(Nc2ncc(-c3ccccc3)o2)c1 ; TGI = > 25 µM

Short answer for C=CCNc1nc2c(N)ncnc2s1 : TGI was > 10 µM

The measured TGI associated with OC[C@H](O)[C@@H](OCc1ccccc1)[C@H](NCc1ccccc1)c1cccs1 reads > 100 µM

# molecule Cc1ccc(O)c(C(=O)/C=C/c2ccccc2)c1 ; its TGI = > 100 µM

So for C1=Nc2ccc(cc2)-c2ccc(cc2)N=Cc2ccccc2OCc2cccc(n2)COc2ccccc21 , the logged TGI turned out to be > 100 µM

Recorded TGI (molecule Cc1ccccc1N=C(c1ccccc1)C1C(=O)c2ccccc2C1=O ): 36.5 µM

Documented TGI of Nc1nc(Cl)cc(Oc2ccc(Cl)cc2)n1 : > 100 µM

====

Please go through the items and note down their TGI.
test system: OVCAR-5 ovarian; experiment: NCI tumour cell line growth inhibition, 48 h
Entry rule: numbers only, all in µM.

The recorded TGI for entry C=C1CC2(CC(c3ccccc3C)OC(c3ccccc3C)C2)OC1=O (stereo not given) equals 26.5

Value of measured TGI for the entry Cc1ccc(S(=O)(=O)N(CC(O)COc2ccccc2)c2ccccc2Cl)cc1 (stereo not given) : 51

Field TGI (entry CCN(CC)CCNC(=O)C1COc2ccc(-c3cc(=O)c4ccccc4o3)cc2O1 (stereo not given) ) reads 56.7

The compound listed as O=C1NC(=O)/C(=C/c2ccc3nccc(-c4ccncc4)c3c2)S1 has a reported TGI of 3.89

// Nc1ccc(Oc2ccc(C34CC5CC(C3)CC(c3ccc(Oc6ccc(N)c(O)c6)cc3)(C5)C4)cc2)cc1O : TGI value = 4.3

====

test system: BT-549 breast; assay: NCI tumour cell line growth inhibition, 48 h
Categories are defined by ranges of TGI, namely 0 = under 20 µM, 1 = from 20 µM up to 50 µM, 2 = 50 µM and over

Task item: Sort O=[N+]([O-])c1cc(-c2ccc([As](=O)(O)O)cc2)ccc1[As](=O)(O)O into one of the categories.
Reply: 2

Task item: For CN(CCCNC(=O)c1[nH]nc2c1ccc1ccccc12)CCCNC(=O)c1[nH]nc2c1ccc1ccccc12 , which TGI bin applies?
Reply: 1

Task item: Category of COC(=O)c1cc(NC(=O)Cn2c3ccccc3c3ccccc32)cn1C :
Reply: 2

Task item: Into which bin does this compound go? C=C1C(O)C2OC(=O)C(=C)C2C(OC(=O)/C(C)=C/C)CC2(C)OC2C2OC12 (configuration not stated)
Reply: 1

Task item: Quick check: band for Nc1nc(N)c2c(n1)NC(c1ccc(Cl)cc1)C1CCc3ccccc3C1=N2 (configuration not stated)
Reply: 1

Task item: Lab note: sort O=C(O)C(=Cc1ccc(-c2ccc([N+](=O)[O-])cc2)o1)C(=O)O into the matching TGI band.
Reply: 2

Task item: Returns: class label. Input: CC(=O)OCc1cc[c]([Hg][Cl])o1
Reply: 0

Task item: # classify by TGI band: CC(C)C(C=O)C(O)(C(F)(F)F)C(F)(F)F (configuration not stated)
Reply: 2

Task item: Would you mind sorting O=c1[nH]c(=O)n(C2C[C@@H](O)[C@@H](CO)O2)cc1F (some centres not stated) into the appropriate category?
Reply: 2

Task item: Dear colleague, I would appreciate it if you could identify the bin for COc1ccc2c(c1)C(=O)CC(C(N)=O)C2 (configuration not stated) and reply at your convenience.
Reply: 2

Task item: Into which category would you place CCOC(=O)/C(C(N)=O)=C(/O)c1cnccn1 ?
Reply: 2

Task item: Hey, which category is COc1cc2c(cc1OC)C/C(=N\O)c1cc(OC)c(OC)cc1/C=C\2 in, do you know?
Reply: 2

Task item: Form field 'band' for CC1(/C=C/c2ccc(-c3ccccc3)cc2)CCn2cnc3ncnc(c32)N1O (configuration not stated)
Reply: 0

Task item: Lab log: CCN1C(=O)N(CC)C2C1NN=c1s/c(=C\c3ccc(Br)cc3)c(=O)n12 (configuration not stated) — assign TGI category
Reply: 0

Task item: Using the reported TGI, which band applies to O=C(O)[C@@H](Cc1ccccc1)NS(=O)(=O)c1ccc(-c2ccccc2)cc1 ?
Reply: 2

Task item: Could you place COc1ccc(/C=C2\CCC(C)(CN(C)C)C2=O)cc1Br (configuration not stated) in its proper category? Many thanks.
Reply: 1

Task item: Which TGI band matches c1ccc(C(OCCN2CC3CCC(C2)N3)c2ccccc2)cc1 ?
Reply: 2

Task item: Dear colleague, I would appreciate it if you could identify the bin for COC(=O)C1(N2CCOCC2)CCC([C@@H](c2ccccc2)C(C)[N+](=O)[O-])C1 (some centres not stated) and reply at your convenience.
Reply: 2

Task item: Could you tell me which band CCN1CCC(O)(/C=C/c2ccc(Cl)c(Cl)c2)C(C(=O)/C=C/c2ccc(Cl)c(Cl)c2)C1 (configuration not stated) belongs to?
Reply: 0

====

system: SF-295 CNS; test: NCI tumour cell line growth inhibition, 48 h; in the data active means GI50 below about 0.43 µM; inactive means the rest
// allowed return values: 1 (active), 0 (inactive)

Task item: Record request — test call for Cc1c(-c2c(F)cc(C(N)=O)c3[nH]c4c(c23)CC[C@H](C(C)(C)O)C4)cccc1-n1c(=O)c2cccc(F)c2n(C)c1=O
Reply: 0

Task item: What is the recorded call for this molecule in the test? C#Cc1cccc(NC(=O)C2CCCCN2C(=O)CCl)c1 (stereo unspecified)
Reply: 0

Task item: Query: recorded result category for CN1CCN(CCCn2c3c(sc4ncccc43)c(=O)n3nnc(-c4ccccc4)c23)CC1 in this test
Reply: 0

Task item: Outcome? Nc1nc(N)c2c(n1)NC(c1ccc(Cl)cc1)C1CCc3ccccc3C1=N2 (stereo unspecified)
Reply: 0

Task item: How was O=C(Nc1n[nH]c2cc(-c3ccc(F)cc3)ccc12)C1CC1 classified in this test?
Reply: 0

Task item: Could you please tell me the result logged for C/C=C1/CN2CCC34c5ccccc5N5C(=O)C(C6CC78c9ccccc9N9C(=O)C=CC(C%10CC7N6C/C%10=C/C)C98)=CC(C1CC23)C54 (stereo unspecified) in this assay?
Reply: 0

Task item: What did this assay record as the result for COc1cccc(/C=C/C(=O)c2cc3c(N)c(C(=O)Nc4ccccc4)sc3nc2C)c1 ?
Reply: 0

Task item: Recorded test outcome, item OCC1OC(n2cnc3cc(Cl)c(Cl)cc32)C(O)C1O (stereo unspecified)
Reply: 0

Task item: Fill in: this test's call for C=C1[C@H](O)C[C@@H](C(C)C(O)CC=C(C)C)[C@@H](O)[C@@H]2C(C)=CC[C@@H]12 (stereo partly specified) is ___
Reply: 0

Task item: Recorded test outcome, item CC(C)Cc1cc(-c2cccn2C)c(C#N)c(=O)[nH]1
Reply: 0

Task item: Tell me the recorded outcome of this test for O=C1NC(=O)/C(=C/c2ccc3nccc(-c4ccncc4)c3c2)S1 .
Reply: 1

====

Give measured TGI for each item. Keep answers brief.
tested on: KM12 colon; test: NCI tumour cell line growth inhibition, 48 h

Note to self: TGI of O=C(COc1ccc(Cl)cc1Cl)NNc1ccc([N+](=O)[O-])cc1 with KM12 colon was > 100 µM

Entry C#CCN(Cc1ccc2nc(-c3ccccc3)c(Cl)nc2c1)c1ccc(Cl)c(Cl)c1 , KM12 colon data, TGI value: > 100 µM

Sample Fc1ccc(Nc2ccnc(N3CCN(c4ccnc5cc(Cl)ccc45)CC3)n2)cc1 , system: KM12 colon. Its TGI is 6.66 µM

GET /values?item= CCOC(=O)C1=C(C)NC(c2ccccc2)=C(C(=O)OCc2ccccc2)C1C#Cc1ccccc1 (configuration not stated) &system= KM12 colon returns TGI: > 100 µM

With KM12 colon as the test system, COc1ccc2c(c1)C(=O)CC(C(N)=O)C2 (configuration not stated) showed TGI of > 100 µM

For the compound CCOC1=C2N=C(C(CC)c3ccc(F)cc3)N=C2C(=O)c2ccccc21 (configuration not stated) , the measured TGI on KM12 colon was > 56.5 µM

Recorded TGI for CCn1c(C)nc([N+](=O)[O-])c1Sc1ncc[nH]1 on KM12 colon was > 100 µM

Per the reported KM12 colon data, CCc1cc2c(cc1O)CC[C@@H]1[C@@H]2CC[C@]2(C)[C@@H](O)CC[C@@H]12 has TGI of 17.4 µM

Form: item CCN(CC)CCNC(=O)C1COc2ccc(-c3cc(=O)c4ccccc4o3)cc2O1 (configuration not stated) ; test system KM12 colon; TGI: 35.4 µM

Noted TGI for CCCCCCCCC/C=C1/CC(CO)(COC(=O)C2CCCCC2)OC1=O (configuration not stated) , tested on KM12 colon: > 100 µM

The recorded TGI with KM12 colon for O=C(Nc1ccn(C2CCC(COC(c3ccccc3)(c3ccccc3)c3ccccc3)O2)c(=O)n1)c1ccccc1 (configuration not stated) was 14.6 µM

Recorded TGI for COC(=O)[C@@]1(Cc2ccc(OC(C)=O)cc2)Cc2cc3ccccc3n2N1 on KM12 colon was > 100 µM

The compound COc1ccc(C2[C@@H](Cl)C(=O)N2c2ccc(OC)cc2)cc1 (some centres not stated) , tested on KM12 colon, showed TGI of > 100 µM

So the reported TGI for C[C@]12CC[C@@H]3c4cc(C=O)c(OCc5ccccc5)cc4CC[C@H]3[C@@H]1CCC2OCc1ccccc1 (some centres not stated) , on KM12 colon, turned out to be > 100 µM

Entry Cc1c(-c2c(F)cc(C(N)=O)c3[nH]c4c(c23)CC[C@H](C(C)(C)O)C4)cccc1-n1c(=O)c2cccc(F)c2n(C)c1=O ; assay system KM12 colon; TGI recorded at > 100 µM

// TGI (KM12 colon) for CC(=O)OC1CC[C@@]2(C)C(=CC[C@@H]3[C@@H]2CC[C@]2(C)Nc4c(cnn4-c4ccc(F)cc4)C[C@@H]32)C1 (some centres not stated) = > 84.1 µM

# lookup: Cc1cc2nc3c(C)c4ccccc4c(C)n3c2cc1C on KM12 colon, TGI = > 10 µM

Assay KM12 colon, sample COc1ccc2nc3c(nc2c1)C(C)(C)C=C3c1ccc(Br)cc1 , TGI read: > 100 µM

Summary: c1ccc2c(c1)CCCc1nnc3nc4ccccc4n3c1-2 , KM12 colon, TGI = 27.6 µM

Hey, KM12 colon data for O=c1oc2c(Cl)cc(Cl)cc2cc1-c1cn2c(n1)sc1ccccc12 : TGI came out at > 100 µM

Record Cc1nc2cc3[nH]c4ccccc4c(=O)c3cc2s1 ; system KM12 colon; TGI = > 100 µM

Hey, KM12 colon data for Cc1[nH]c(-c2ccccc2)c(O)c1C(=O)OC1CC(C)CCC1C(C)C (configuration not stated) : TGI came out at 27.9 µM

Form: item COc1cc2ccnc3c2c(c1OC)N(C)C=C3 ; test system KM12 colon; TGI: > 100 µM

Assay KM12 colon, sample C=C1C(=O)OC2C=C(C)CC3C=C(CCC=C(C)CCC12)C(=O)O3 (configuration not stated) , TGI read: 109 µM

KM12 colon assay, compound COC(=O)C1(N2CCOCC2)CCC([C@@H](c2ccccc2)C(C)[N+](=O)[O-])C1 (some centres not stated) , recorded TGI = > 100 µM

Case Cc1ccccc1N=C(c1ccccc1)C1C(=O)c2ccccc2C1=O , KM12 colon, TGI recorded as 30.8 µM

Param item: O=[N+]([O-])c1ccc(NC(c2ccccc2)c2ccc3cccnc3c2O)cc1 (configuration not stated) ; param system: KM12 colon; output TGI: > 100 µM

The value of TGI recorded for O=C(O)[C@@H](Cc1ccccc1)NS(=O)(=O)c1ccc(-c2ccccc2)cc1 when tested on KM12 colon reads > 100 µM

So the reported TGI for COc1cc2cc(C(=O)Nc3ccccc3)c(N)nc2cc1OC , on KM12 colon, turned out to be > 100 µM

Short answer on KM12 colon for O=C(Cn1cc(I)c(C(=O)NCC(O)CO)n1)NCC(O)CO (configuration not stated) , TGI: > 100 µM

Known value: KM12 colon TGI of the compound COc1ccc(C2=Nn3c(nc4sc5c(c4c3=O)CCCC5)SC2)cc1 equals > 100 µM

The measured TGI that CCN(Cc1c(F)cccc1C(F)(F)F)c1ccc(CO)c(Cl)c1 showed for KM12 colon is 29.4 µM
